Where do the numbers come from? From PubChem BioAssay AID1159580.

assay: chemical genetic growth profiling, strain panel (AID 1159580);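 further: tested at 20 µM; growth read once vehicle control cultures reached saturation at 30 °C; 1 = growth at the plate median or of vehicle wells; lower values mean less growth of the strain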; conditions: S. cerevisiae deletion strains, growth OD, locus YBR279W, strain paf1, stronger effect = lower value
Hit rate of the full screen: of about 5,500 compounds, about 2,000 (36%) were called active. Another 18% or so got no clear call; they are omitted. Some of the results follow.
Each item that follows carries a reported normalized growth.
API doc: respond with a numeric literal and nothing else, no unit.

Solved cases below.
Compound | normalized growth
CN1Cc2c(N)cccc2C(c2ccccc2)C1 (stereo not drawn) | 1.03
COc1ccc(Cc2nccc3cc(OC)c(OC)cc23)cc1OC | 1.01

Now look at this one.
Request: Consider the compound CCOc1ccc(Cc2nccc3cc(OCC)c(OCC)cc23)cc1OCC and give its measured normalized growth.
Response: 0.989
